The entries below come with measured kon values attached.
MEASUREMENT TARGET: T1, biotinylated GITR (human, UniProt Q9Y5U5 26-161, limits assumed, biotinylated (sites not given))
T1 construct: also called GITR-bio; Biotin-GITR
T1 sequence: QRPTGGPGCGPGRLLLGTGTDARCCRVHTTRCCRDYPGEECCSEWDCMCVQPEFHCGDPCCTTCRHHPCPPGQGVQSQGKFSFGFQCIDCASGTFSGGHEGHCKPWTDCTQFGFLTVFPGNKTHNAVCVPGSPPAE
TEST METHOD NOTES: BLI (Octet), biotin-GITR on streptavidin tips, antibody supernatant
METRIC: kon (M⁻¹ s⁻¹)

BINDER: germline variant antibody 34 (H1916D04 / K1916D04) (antibody, V domains shown, IGHG1/IGKC expression vectors; measured from CHO culture supernatant; also called Antibody ID 34) VH: QVQLVQSGAEVKKPGASVKVSCKASGYTFTDYAMYWVRQAPGQGMEWIGVIRTFSGGVTYNQKFRGRVTMTVDTSISTAYMELSRLRSDDTAVYYCAKSGTVRGFAYWGQGTLVTVSS VL: DIVMTQSTDSLAVSLGERATINCKSSQSLLNSSNQKNYLTWYQQKPGQPPKLLIYWASTRESGVPDRFTGSGSGTDFTLTISSLQAEDVAVYHCQNDYSYPYTFGQGTKLEIK
READING: 557000

BINDER: germline variant antibody 97 (H1917G07 / K1917G07) (antibody, V domains shown, IGHG1/IGKC expression vectors; measured from CHO culture supernatant; also called Antibody ID 97) VH: QVQLVQSGTEVKKPGASVKVSCKGSGYTFTEYAMHWVRQAPGQGMEWIGLIRTFSGGLSYNQKFRDRVTMTVDKSISTAYMELSRLRSDDTAVYYCAKSGTVRGFAYWGQGTLVTVSS VL: DIVMTQSPDSLAVSLGERATINCKSSQSLLNSGNQKNYLTWYHQKPGQPPKLLIYWASTRESGVPDRFTGSGSGTDFTLTISSVQAEDVAVYHCQNEYSFPYTFGQGTKLEIK
READING: 534000

BINDER: germline variant antibody 85 (H1917E02 / K1917E02) (antibody, V domains shown, IGHG1/IGKC expression vectors; measured from CHO culture supernatant; also called Antibody ID 85) VH: QVQLVQSGAEVKKPGASVKVSCKASGYTFTEYAMYWVRQAPGQGLEWMGVIRTYSGGVTYNQKFKDRATMTVDTSISTAYMELSRLRSDDTAVYYCAKSGTVRGFAYWGQGTLVTVSS VL: DIVMTQSPDSLAVSLGERATINCKSSQSLLNSSNQKNYLSWYHQKPGQPPKLLIYWASTRESGVPDRFSGSGSGTDFTLTISSVQAEDVAVYYCQNDYSYPYTFGQGTKLEIK
READING: 289000

Values compiled from patent US20210070872A1.
